Cited source for all entries: patent US20230131966A1

system: Zymoseptoria tritici; assay: Test C: wheat leaf blotch control on wheat seedlings; assay type: in vivo; settings: 250 ppm; wheat seedlings; 100 = 100% disease control, 0 = no control
Returns Condition met if the recorded Test C disease control rating is greater than or equal to 90%, and Condition not met otherwise.

[
  {
    "MOLECULE": "COc1ccnc(C(=O)N[C@@H](C)C(=O)OC(C)c2ccc(-n3ccc(C(F)(F)F)n3)cc2Cc2ccccc2)c1O (some centres unmarked) [Compound 93]",
    "LABEL": "Condition not met"
  },
  {
    "MOLECULE": "COc1ccnc(C(=O)N[C@@H](C)C(=O)OC(C)c2cccc(-c3ccccc3)c2)c1O (single isomer, unassigned) [Compound 3]",
    "LABEL": "Condition not met"
  },
  {
    "MOLECULE": "COc1ccnc(C(=O)NC(C)C(=O)OC(C)C2CCCc3ccccc32)c1OC(C)=O (mixture of isomers) [Compound 185]",
    "LABEL": "Condition met"
  },
  {
    "MOLECULE": "CCC(OC(=O)[C@H](C)NC(=O)c1nccc(OC)c1OCOC(=O)C(C)C)C1CCCCC1 (single isomer, unassigned) [Compound 170]",
    "LABEL": "Condition met"
  },
  {
    "MOLECULE": "COc1ccnc(C(=O)NC(C)C(=O)OC(C)c2ccc(-n3ccc(C(F)(F)F)n3)cc2-n2ccc(C(F)(F)F)n2)c1OC(C)=O (mixture of isomers) [Compound 90]",
    "LABEL": "Condition not met"
  },
  {
    "MOLECULE": "COc1ccnc(C(=O)NC(C)C(=O)OC(C)c2ccc(C3CCCCC3)cc2)c1OC(=O)C(C)C (mixture of isomers) [Compound 154]",
    "LABEL": "Condition not met"
  },
  {
    "MOLECULE": "COc1ccnc(C(=O)NC(C)C(=O)OC(C)c2ccccc2-n2ccc(C(F)(F)F)n2)c1O (mixture of isomers) [Compound 26]",
    "LABEL": "Condition not met"
  },
  {
    "MOLECULE": "COc1ccnc(C(=O)NC(C)C(=O)OC(C)c2cccc3ccccc23)c1O (centres unmarked) [Compound 114]",
    "LABEL": "Condition not met"
  },
  {
    "MOLECULE": "COc1ccnc(C(=O)N[C@@H](C)C(=O)OC(C)c2ccc(C(C)C)cc2)c1OC(C)=O (some centres unmarked) [Compound 117]",
    "LABEL": "Condition met"
  },
  {
    "MOLECULE": "COc1ccnc(C(=O)N[C@@H](C)C(=O)OC(c2ccc(C3CCCCC3)cc2)C(F)(F)F)c1O (some centres unmarked) [Compound 120]",
    "LABEL": "Condition met"
  },
  {
    "MOLECULE": "CCCCCCc1ccc(C(C)OC(=O)C(C)NC(=O)c2nccc(OC)c2O)cc1 (mixture of isomers) [Compound 68]",
    "LABEL": "Condition met"
  }
]
